Hi there, I'd appreciate the recorded normalized growth for every entry that follows.
protocol.text: chemical genetic growth profiling, strain panel (AID 1159580);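 note: tested at 20 µM; growth read once vehicle control cultures reached saturation at 30 °C; 1 = growth at the plate median or of vehicle wells; lower values mean less growth of the strain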
cond: S. cerevisiae deletion strains, growth OD, locus YPR141C, strain kar3, active compounds read low
Among all 5,500 compounds or so, about 2,000 (36%) were called active. About 18% were inconclusive and are not listed. The list shows a part of the results.
Give bare numbers.

molecule: COc1cc(C(=O)N2CCOCC2)cc(OC)c1OC
normalized growth: 1.03

molecule: C/C=C(/C)C(=O)O[C@@H]1Cc2c(ccc3ccc(=O)oc23)OC1(C)C
normalized growth: 0.981

molecule: CC(=O)Oc1ccccc1C(=O)Oc1ccccc1C(=O)O
normalized growth: 0.975

molecule: O=C(O)CN(CCN(CC(=O)O)CC(=O)O)CC(=O)O
normalized growth: 0.992

molecule: NCCCN
normalized growth: 0.985

molecule: NCC(O)CC(=O)O (stereo not given)
normalized growth: 0.994

molecule: CC1=CC(=O)C(C(C)C)=CC1=O
normalized growth: 0.941

molecule: COP(N)(=O)SC (stereo not given)
normalized growth: 1.01

molecule: COC1CC(O[C@H]2CC[C@]3(C=O)C4CC[C@]5(C)C(C6=CC(=O)OC6)CC[C@]5(O)C4CC[C@]3(O)C2)OC(C)C1O (stereo not given in full)
normalized growth: 0.992

molecule: O=C(CCCN1CCC2(CC1)C(=O)NCN2c1ccccc1)c1ccc(F)cc1
normalized growth: 1

I'm hoping you can list normalized growth for every molecule here, please.
1. CC1Cc2ccccc2N1NC(=O)c1ccc(Cl)c(S(N)(=O)=O)c1 (stereo not given)
2. CC(=O)[C@@]1(O)CCC2C3C=C(Cl)C4=CC(=O)[C@@H]5CC5[C@]4(C)C3CC[C@@]21C (stereo not given in full)
3. NC[C@@H]1O[C@H](O[C@@H]2[C@@H](CO)OC(O[C@@H]3[C@@H](O)[C@H](N)C[C@H](N)[C@H]3O[C@H]3O[C@H](CO)[C@@H](O)[C@H](O)[C@H]3N)[C@@H]2O)[C@H](N)[C@@H](O)[C@@H]1O (stereo not given in full)
4. CO[C@@H]1C[C@H](O[C@H]2CC[C@]3(C)C4CC[C@]5(C)[C@@H](C6=CC(=O)OC6)CC[C@]5(O)[C@@H]4CC[C@]3(O)C2)O[C@H](C)[C@@H]1O (stereo not given in full)

1: 0.998; 2: 0.998; 3: 0.988; 4: 1.02

---

protocol.text: chemical genetic growth profiling, strain panel (AID 1159580);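 note: tested at 20 µM; growth read once vehicle control cultures reached saturation at 30 °C; 1 = growth at the plate median or of vehicle wells; lower values mean less growth of the strain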
cond: S. cerevisiae deletion strains, growth OD, locus YNL071W, strain lat1, active compounds read low
Out of some 5,500 compounds screened, about 2,000 (36%) were called active. Roughly 18% stayed inconclusive and do not appear here. The list shows a part of the results.
property.label: normalized growth
One number for each entry.

compound: COc1c(O)cc2c(c1O)[C@H]1O[C@H](CO)[C@@H](O)[C@H](O)[C@@H]1OC2=O
number: 1.03
--
compound: O=c1c2cc(O)c(O)cc2oc2cc(O)c(C3O[C@H](CO)[C@H](O)[C@@H](O)[C@H]3O)c(O)c12 (some centres not stated)
number: 1.02
--
compound: Cc1c(C(N)=O)cc([N+](=O)[O-])cc1[N+](=O)[O-]
number: 1.02
--
compound: CC1(C)C(=O)CC[C@@]2(C)C1C[C@@H](O)[C@@]1(C)C3=CC(=O)O[C@@H](c4ccoc4)[C@]3(C)CCC21 (some centres not stated)
number: 1.02
--
compound: Cc1c(OCC(F)(F)F)ccnc1CS(=O)c1nc2ccccc2[nH]1 (configuration not stated)
number: 1.01

I'm hoping you can list normalized growth for every compound here, please.
1. CCC(=O)OCC(=O)C1(OC(=O)CC)C(C)CC2C3C(Cl)CC4=CC(=O)C=CC4(C)C3C(O)CC21C (configuration not stated)
2. CC(=O)O[C@@H]1CC2C(C)(CC[C@H](O)C2(C)C)C2CC[C@]3(C)C(=CC(=O)O[C@H]3c3ccoc3)C21C (some centres not stated)
3. CO[C@@H]1[C@@H](OC(N)=O)[C@@H](O)[C@H](Oc2ccc3c(O)c(NC(=O)c4ccc(O)c(CC=C(C)C)c4)c(=O)oc3c2C)OC1(C)C
4. CC(C)(C)NCC(O)COc1cccc2c1C[C@H](O)[C@H](O)C2 (some centres not stated)
5. NCCCC(O)(P(=O)(O)O)P(=O)(O)O

1: 1.02; 2: 1.01; 3: 1.04; 4: 0.999; 5: 0.985

I'm hoping you can list normalized growth for every compound here, please.
1. C[C@@H]1CC[C@@]23CCC4(C)[C@@](C=CC5[C@@]6(C)CC[C@H](O)C(C)(C)C6CC[C@]54C)(OC2=O)C3[C@H]1C (some centres not stated)
2. NC(=O)c1cc([N+](=O)[O-])cc([N+](=O)[O-])c1
3. COC(=O)[C@H]1[C@H]2C[C@H]3c4[nH]c5cc(OC)ccc5c4CCN3C[C@H]2C[C@@H](OC(=O)c2cc(OC)c(OC)c(OC)c2)[C@@H]1OC
4. CCCc1nn(C)c2c(=O)[nH]c(-c3cc(S(=O)(=O)N4CCN(C)CC4)ccc3OCC)nc12
5. O=c1c(-c2ccc(O)cc2)coc2c(C3O[C@H](CO)[C@@H](O)[C@H](O)[C@H]3O)c(O)ccc12 (some centres not stated)
6. NCC(O)CC(=O)O (configuration not stated)
7. CCCCC(=O)O[C@]1(C(=O)CO)[C@@H](C)CC2C3CCC4=CC(=O)C=C[C@]4(C)[C@@]3(F)C(O)C[C@@]21C (some centres not stated)

1: 1.01; 2: 0.998; 3: 1.02; 4: 0.991; 5: 0.979; 6: 0.981; 7: 0.918

---

protocol.text: chemical genetic growth profiling, strain panel (AID 1159580);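 note: tested at 20 µM; growth read once vehicle control cultures reached saturation at 30 °C; 1 = growth at the plate median or of vehicle wells; lower values mean less growth of the strain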
cond: S. cerevisiae deletion strains, growth OD, locus YOR290C, strain snf2, active compounds read low
Screen size: about 5,500 compounds; about 2,000 (36%) were called active. Not shown: some 18% with an inconclusive outcome. This is one part of the list.
Hi there, I'd appreciate the recorded normalized growth for every entry that follows.
Answers are plain numbers.

compound: CC(C)Nc1nc(Cl)nc(NC(C)C)n1
normalized growth: 1.02
//
compound: COC(=O)[C@H]1[C@H]2C[C@H]3c4[nH]c5cc(OC)ccc5c4CCN3C[C@H]2C[C@@H](OC(=O)c2cc(OC)c(OC)c(OC)c2)[C@@H]1OC
normalized growth: 0.971
//
compound: COC(=O)C(N)CS (stereo not given)
normalized growth: 1.02

I'm hoping you can list normalized growth for every compound here, please.
1. NCCCN
2. CSc1nc(NC(C)C)nc(NC(C)C)n1
3. CO[C@H]1[C@@H](O)[C@@H](C)O[C@H](O[C@H]2CCC3(C)C4CCC5(C)[C@@H](C6=CC(=O)OC6)CC[C@]5(O)[C@@H]4CC[C@]3(O)C2)[C@@H]1O (stereo not given in full)
4. CC1Cc2ccccc2N1NC(=O)c1ccc(Cl)c(S(N)(=O)=O)c1 (stereo not given)
5. COc1nc(NC(C)C)nc(NC(C)C)n1
6. COC(=O)C[C@H]1C(C)(C)[C@@H](O)[C@@H]2CC3=C4CC(O)O[C@@H](c5ccoc5)[C@]4(C)CCC3[C@@]1(C)C2=O (stereo not given in full)

0.991
0.95
1.01
0.952
0.997
0.953

Provide only the value of recorded normalized growth for Nc1nc(/C(=C/CC(=O)O)C(=O)N[C@@H]2C(=O)N3C(C(=O)O)=CCS[C@H]23)cs1
0.995

---

Hi there, I'd appreciate the recorded normalized growth for every entry that follows.
protocol.text: chemical genetic growth profiling, strain panel (AID 1159580);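 note: tested at 20 µM; growth read once vehicle control cultures reached saturation at 30 °C; 1 = growth at the plate median or of vehicle wells; lower values mean less growth of the strain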
cond: S. cerevisiae deletion strains, growth OD, locus YDR334W, strain swr1, active compounds read low
Out of some 5,500 compounds screened, about 2,000 (36%) were called active. Roughly 18% stayed inconclusive and do not appear here. The list shows a part of the results.
Numbers only.

Consider the reported normalized growth for these compounds:
compound: O=C(/C=C(\O)c1ccccc1)c1ccccc1O
number: 0.687

compound: C[C@H]1[C@H](C)CC[C@]2(C(=O)O)CC[C@]3(C)C(=CCC4[C@@]5(C)C[C@@H](O)[C@H](O)[C@@](C)(CO)C5CC[C@]43C)[C@H]12 (stereo not given in full)
number: 1.04

compound: CCn1nc(C(=O)O)c(=O)c2cc3c(cc21)OCO3
number: 1

compound: NC(=O)c1ccccc1O
number: 0.935

compound: Nc1ccc(S(=O)(=O)Nc2ncccn2)cc1
number: 0.935

compound: O=C(O)C1=CC(=C(c2ccc(O)c(C(=O)O)c2)c2ccc(O)c(C(=O)O)c2)C=CC1=O
number: 0.957

compound: CCCCCC(O)C1C(=O)OC(C)C(O)/C=C/C=C/C=C/C=C/C=C(\C)C(O)CC(O)CC(O)CC(O)CC(O)CC(O)CC1O (stereo not given)
number: 0.986

compound: CC12CCC(=O)C=C1CCc1ccccc12 (stereo not given)
number: 0.959

I'm hoping you can list normalized growth for every compound here, please.
1. Nc1nc(/C(=C/CC(=O)O)C(=O)N[C@@H]2C(=O)N3C(C(=O)O)=CCS[C@H]23)cs1
2. O=C(O)CCc1nc(-c2ccccc2)c(-c2ccccc2)o1

0.993
0.948
